Measurement target: α1β2γ2S GABAA receptors (Homo sapiens, UniProt P14867+P47870)
Sequence (P14867 28-456): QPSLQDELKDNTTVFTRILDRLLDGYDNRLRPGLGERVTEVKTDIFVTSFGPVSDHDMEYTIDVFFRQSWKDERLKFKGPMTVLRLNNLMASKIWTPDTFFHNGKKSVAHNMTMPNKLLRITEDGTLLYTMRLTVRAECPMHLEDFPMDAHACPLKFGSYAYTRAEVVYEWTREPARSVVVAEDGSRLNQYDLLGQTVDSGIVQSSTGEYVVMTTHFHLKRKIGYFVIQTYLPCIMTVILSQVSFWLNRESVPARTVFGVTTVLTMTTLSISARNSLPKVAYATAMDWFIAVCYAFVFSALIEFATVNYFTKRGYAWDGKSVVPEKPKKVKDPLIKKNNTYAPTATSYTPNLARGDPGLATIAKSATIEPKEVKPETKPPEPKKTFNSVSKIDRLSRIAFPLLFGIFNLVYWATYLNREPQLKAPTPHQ
Sequence (P47870 26-512): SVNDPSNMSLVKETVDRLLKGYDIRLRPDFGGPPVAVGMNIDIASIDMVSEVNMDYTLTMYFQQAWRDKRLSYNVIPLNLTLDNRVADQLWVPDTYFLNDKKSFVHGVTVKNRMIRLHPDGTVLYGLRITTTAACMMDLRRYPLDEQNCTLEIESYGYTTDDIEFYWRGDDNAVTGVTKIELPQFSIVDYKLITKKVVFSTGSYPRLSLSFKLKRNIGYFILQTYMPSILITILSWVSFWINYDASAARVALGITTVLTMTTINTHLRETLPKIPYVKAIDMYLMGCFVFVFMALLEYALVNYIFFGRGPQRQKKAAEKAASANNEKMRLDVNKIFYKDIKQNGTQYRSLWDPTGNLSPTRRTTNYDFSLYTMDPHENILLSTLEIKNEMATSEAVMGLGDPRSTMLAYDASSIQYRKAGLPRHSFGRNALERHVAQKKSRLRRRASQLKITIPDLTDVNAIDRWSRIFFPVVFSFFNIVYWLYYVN
Sequence (P18507 40-467 isoform P18507-1 partner limits assumed): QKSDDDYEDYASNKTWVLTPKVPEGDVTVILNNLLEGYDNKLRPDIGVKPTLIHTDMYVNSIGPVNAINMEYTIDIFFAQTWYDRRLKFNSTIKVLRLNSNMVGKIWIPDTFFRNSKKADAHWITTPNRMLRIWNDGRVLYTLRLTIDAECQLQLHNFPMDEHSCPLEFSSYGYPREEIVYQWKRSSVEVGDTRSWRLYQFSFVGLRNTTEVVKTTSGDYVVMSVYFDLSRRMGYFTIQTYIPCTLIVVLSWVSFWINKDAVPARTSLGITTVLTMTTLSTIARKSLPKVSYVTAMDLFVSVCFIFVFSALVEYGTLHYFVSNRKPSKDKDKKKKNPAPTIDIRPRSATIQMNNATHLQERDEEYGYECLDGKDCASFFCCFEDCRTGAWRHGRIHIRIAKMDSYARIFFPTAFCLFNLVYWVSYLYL
Assay comment: Two-microelectrode voltage clamp, IGABA modulation, α1β2γ2S
Condition: IGABA enhancement, GABA EC3–7, Xenopus oocytes
Reported metric: EC50 (µM)

• CCCCN(CCCC)C(=O)c1cccc2cc3c(cc12)OCO3 = 31.8
• CCCCN(CCCC)C(=O)c1ccccc1-c1ccc2c(c1)OCO2 = 36.8
• CCCN(CCC)C(=O)/C=C/C=C/c1ccc2c(c1)OCO2 = 51.7
• O=C(/C=C/C=C/c1ccc2c(c1)OCO2)N(CC(F)(F)F)CC(F)(F)F = 23.1
• CC1CCN(C(=O)/C=C/C=C/c2ccc3c(c2)OCO3)CC1 = 67.7

Cited source: paper PMC4106271
